assay: physchem; type: physicochemical; conditions: water, pKa1
Endpoint: pKa

• Nc1nc2ncc(CNc3ccc(C(=O)N[C@@H](CCC(=O)O)C(=O)O)cc3)nc2c(=O)[nH]1 [folic acid, Folic acid, reference compound] = 2.5
